Entries below carry reported IC50 on SYK kinase (Homo sapiens, UniProt P43405).

Ask | Name the reported IC50 value associated with the compound `CC(C)c1nc(Nc2cnn(C3CCOCC3)c2)c2[nH]ncc2n1`
Reply | 100 to 1000 nM

Ask | Give its IC50 value. Item: `CC(C)(C)N1CCN(c2ccc(Nc3nc(-c4ccccc4F)nc4cn[nH]c34)cc2)CC1`
Reply | 100 to 1000 nM

Ask | What value of IC50 has been recorded for this entry: `CC(C)(C)n1cc(Nc2nc(-c3cccc(NS(C)(=O)=O)c3)nc3cn[nH]c23)cn1`
Reply | 100 to 1000 nM
